assay: Solubility of compound 1 crystalline free base in different solvents, by HPLC; format: physicochemical; settings: organic solvent or mixture, thermodynamic from solid; solvent Methanol; crystalline free base slurry, room temperature, 4 day solution; read-out: Conc. FB (solubility)

# smilesStr, solubility at 4 day / mg/mL
measured = [
    ("C[C@@H](c1ccc2ncccc2c1)c1nnc2sc(-c3cnn(C)c3)nn12", 41),
]

###

assay: Solubility of compound 1 crystalline free base in different solvents, by HPLC; format: physicochemical; conditions: organic solvent or mixture, thermodynamic from solid; solvent EtOAc; crystalline free base slurry, room temperature, 4 day solution; read-out: Conc. FB (solubility)

# smilesStr, solubility at 4 day
measured = [
    ("C[C@@H](c1ccc2ncccc2c1)c1nnc2sc(-c3cnn(C)c3)nn12", "7240 µg/mL"),
]

###

target: hERG (Homo sapiens, UniProt Q12809); assay: hERG inhibition assay, whole cell recording in HEK293 cells expressing hERG; conditions: hERG current, peak tail current
Sequence (Q12809 whole entry): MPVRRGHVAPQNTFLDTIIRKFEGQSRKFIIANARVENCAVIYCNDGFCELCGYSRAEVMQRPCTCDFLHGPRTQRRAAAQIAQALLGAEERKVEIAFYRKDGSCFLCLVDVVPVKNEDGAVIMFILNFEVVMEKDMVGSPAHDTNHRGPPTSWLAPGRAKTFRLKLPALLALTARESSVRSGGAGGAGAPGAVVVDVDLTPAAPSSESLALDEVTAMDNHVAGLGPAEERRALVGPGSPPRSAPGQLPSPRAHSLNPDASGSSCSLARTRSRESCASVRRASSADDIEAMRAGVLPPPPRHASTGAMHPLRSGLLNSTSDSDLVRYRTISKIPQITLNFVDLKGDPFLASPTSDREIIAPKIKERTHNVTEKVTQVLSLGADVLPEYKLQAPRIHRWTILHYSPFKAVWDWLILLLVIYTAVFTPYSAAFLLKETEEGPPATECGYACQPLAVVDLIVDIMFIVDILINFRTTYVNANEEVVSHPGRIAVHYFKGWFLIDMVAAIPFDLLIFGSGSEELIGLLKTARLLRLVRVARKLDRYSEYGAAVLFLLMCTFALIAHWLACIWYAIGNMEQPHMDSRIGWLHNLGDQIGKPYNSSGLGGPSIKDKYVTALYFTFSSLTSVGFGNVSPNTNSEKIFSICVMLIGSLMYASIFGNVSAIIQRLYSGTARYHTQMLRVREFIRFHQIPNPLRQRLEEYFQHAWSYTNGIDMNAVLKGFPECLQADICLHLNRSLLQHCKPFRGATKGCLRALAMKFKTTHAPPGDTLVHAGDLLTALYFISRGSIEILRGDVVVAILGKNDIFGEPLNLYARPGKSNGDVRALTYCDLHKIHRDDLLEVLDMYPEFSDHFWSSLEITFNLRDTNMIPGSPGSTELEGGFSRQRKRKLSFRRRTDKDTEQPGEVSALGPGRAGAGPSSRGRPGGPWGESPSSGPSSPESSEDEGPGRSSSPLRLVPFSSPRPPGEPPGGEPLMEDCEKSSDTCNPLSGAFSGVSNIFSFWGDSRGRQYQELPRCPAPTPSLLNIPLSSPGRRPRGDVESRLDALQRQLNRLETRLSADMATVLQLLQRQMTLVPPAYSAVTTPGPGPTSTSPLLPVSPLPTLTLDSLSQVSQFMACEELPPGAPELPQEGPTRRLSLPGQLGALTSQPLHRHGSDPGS
pIC50: −log10 of the molar value.

# smilesStr, pIC50
records = [
    ("C[C@@H](c1ccc2ncccc2c1)c1nnc2sc(-c3cnn(C)c3)nn12", 3.96),
]

###

experiment: Solubility of compound 1 crystalline free base in different solvents, by HPLC; format: physicochemical; settings: organic solvent or mixture, thermodynamic from solid; solvent Acetonitrile; crystalline free base slurry, room temperature, 4 day solution; read-out: Conc. FB (solubility)

# smilesStr, unitAbbrev, solubility at 4 day
data = [
    ("C[C@@H](c1ccc2ncccc2c1)c1nnc2sc(-c3cnn(C)c3)nn12", "µg/mL", 9760),
]

###

assay: Solubility of compound 1 crystalline free base in different solvents, by HPLC; assay type: physicochemical; conditions: organic solvent or mixture, thermodynamic from solid; solvent DMSO; crystalline free base slurry, room temperature, 4 day solution; read-out: Conc. FB (solubility)
recordedMetric: solubility at 4 day (mg/mL)

# smilesStr, observedValue
records = [
    ("C[C@@H](c1ccc2ncccc2c1)c1nnc2sc(-c3cnn(C)c3)nn12", 67.7),
]

###

assay: Solubility of compound 1 crystalline free base in different solvents, by HPLC; type: physicochemical; conditions: thermodynamic from solid; solvent water; crystalline free base slurry, room temperature, 4 day solution; read-out: Conc. FB (solubility)
recordedMetric: solubility at 4 day

# molecule, recordedMetric, observedValue
data = [
    ("C[C@@H](c1ccc2ncccc2c1)c1nnc2sc(-c3cnn(C)c3)nn12 [Compound 1]", "solubility at 4 day", "150 µg/mL"),
]

###

Assay: Solubility of compound 1 crystalline free base in different solvents, by HPLC
Assay type: physicochemical
Details: organic solvent or mixture, thermodynamic from solid; solvent Glycerol; crystalline free base slurry, room temperature, 4 day solution; read-out: Conc. FB (solubility)
Protocol: About 10 mg of compound 1, crystalline free base (FB), was loaded into a vial with a magnetic stir bar. About 150 μL of solvent were added to each vial. If compound 1 dissolved completely, more solid was added to the vial and stirring of the resulting slurry was continued at room temperature. The 4 day solution was filtered off using centrifuge filters and diluted in methanol to obtain solubility data by HPLC analysis. […]

# smilesStr, solubility at 4 day / µg/mL
records = [
    ("C[C@@H](c1ccc2ncccc2c1)c1nnc2sc(-c3cnn(C)c3)nn12", 690),
]

###

assay: Solubility of compound 1 crystalline free base in different solvents, by HPLC; assay type: physicochemical; conditions: organic solvent or mixture, thermodynamic from solid; solvent IPA; crystalline free base slurry, room temperature, 4 day solution; read-out: Conc. FB (solubility)

# smilesStr, solubility at 4 day, µg/mL
records = [
    ("C[C@@H](c1ccc2ncccc2c1)c1nnc2sc(-c3cnn(C)c3)nn12", 7920),
]

Hello, the source for this data is patent US8343998B2, in case you need it.
